- Test system: Staphylococcus aureus (ATCC 29213)
- Assay type: cell-based
- experimental-setup: individual polypeptides
Where no end group is shown, it is not given here.
Decide using IC50 (μg/ml) against S. aureus alone. Strictly below 3 µg/mL: TRUE. Equal to or above 3 µg/mL: FALSE.

Problem: Does the reported IC50 (μg/ml) against S. aureus of YKLLKLLLPKLKPLLIKL-NH2 [SEQ ID NO: 7, YKLLKLLLPKLKPLLIKL] stay below 3 µg/mL?
Result: TRUE

Problem: Does the reported IC50 (μg/ml) against S. aureus of YKLLKLLLPKLKGLLIKL-NH2 [SEQ ID NO: 4, YKLLKLLLPKLKGLLIKL] stay below 3 µg/mL?
Result: TRUE

Problem: Does the reported IC50 (μg/ml) against S. aureus of YKLLKLLLPKLKPLLPKL-NH2 [SEQ ID NO: 8, YKLLKLLLPKLKPLLPKL] stay below 3 µg/mL?
Result: FALSE

Problem: Does the reported IC50 (μg/ml) against S. aureus of YKLLKLLLPKLKPLLFKL-NH2 [SEQ ID NO: 6, YKLLKLLLPKLKPLLFKL] stay below 3 µg/mL?
Result: TRUE

Problem: Does the reported IC50 (μg/ml) against S. aureus of YKLLKLLLPKLKGLLPKL-NH2 [SEQ ID NO: 5, YKLLKLLLPKLKGLLPKL] stay below 3 µg/mL?
Result: FALSE

Problem: Does the reported IC50 (μg/ml) against S. aureus of YKLLKLLLPKLKGLLFKL-NH2 [SEQ ID NO: 3, YKLLKLLLPKLKGLLFKL] stay below 3 µg/mL?
Result: TRUE

* * *

- Test system: human erythrocytes (red blood cells; RBCs)
- test-protocol: Hemolytic activity
- Assay type: cell-based
- experimental-setup: red cells of human
Where no end group is shown, it is not given here.
measurement-kind: HC50 (μg/ml) against Erythrocytes

Problem: Value lookup for HC50 (μg/ml) against Erythrocytes; key = YKLLKLLLPKLKPLLIKL-NH2 [SEQ ID NO: 7, YKLLKLLLPKLKPLLIKL]
Result: 68.90 µg/mL

Problem: Value lookup for HC50 (μg/ml) against Erythrocytes; key = YKLLKLLLPKLKPLLFKL-NH2 [SEQ ID NO: 6, YKLLKLLLPKLKPLLFKL]
Result: 54.74 µg/mL

Problem: Value lookup for HC50 (μg/ml) against Erythrocytes; key = YKLLKLLLPKLKPLLPKL-NH2 [SEQ ID NO: 8, YKLLKLLLPKLKPLLPKL]
Result: > 125 µg/mL

Problem: Value lookup for HC50 (μg/ml) against Erythrocytes; key = YKLLKLLLPKLKGLLIKL-NH2 [SEQ ID NO: 4, YKLLKLLLPKLKGLLIKL]
Result: 28.41 µg/mL

Problem: Value lookup for HC50 (μg/ml) against Erythrocytes; key = YKLLKLLLPKLKGLLFKL-NH2 [SEQ ID NO: 3, YKLLKLLLPKLKGLLFKL]
Result: 24.41 µg/mL

Problem: Value lookup for HC50 (μg/ml) against Erythrocytes; key = YKLLKLLLPKLKGLLPKL-NH2 [SEQ ID NO: 5, YKLLKLLLPKLKGLLPKL]
Result: > 125 µg/mL
